Measured values drawn from ChEMBL document CHEMBL1153243 for this set.

Test: Oral bioavailability in Sprague-Dawley rat
Type: ADME, organism-based
Conditions: in vivo
QUANTITY NAME: bioavailability (%)

Here's what some known entries look like.
# COMPOUND, ASSAY RESULT
records = [
    ("CC(c1ccc(N2CC[C@H](NS(=O)(=O)c3cc4ccc(Cl)cc4s3)C2=O)c(F)c1)N(C)C (some centres not stated)", 10),
    ("C[C@H](c1ccc(N2CC[C@H](NS(=O)(=O)c3ccc4cc(Cl)ccc4c3)C2=O)c(F)c1)N(C)C", 43),
]

[1] C[C@@H](c1ccc(N2CC[C@H](NS(=O)(=O)c3ccc4cc(Cl)ccc4c3)C2=O)c(F)c1)N(C)C
[2] C[C@H](c1ccc(N2CC[C@H](NS(=O)(=O)/C=C/c3ccc(Cl)s3)C2=O)c(F)c1)N(C)C
[3] C[C@@H](c1ccc(N2CC[C@H](NS(=O)(=O)/C=C/c3ccc(Cl)s3)C2=O)c(F)c1)N(C)C
Query :: Highest bioavailability first, then in falling order down to the smallest. Give the order by naming the labels one after another as requested.
Result :: 1, 2, 3
